- target or system: PfLysRS (Plasmodium falciparum, UniProt Q8IDJ8)
- assay overview: Thermal shift assay, PfLysRS
- Format: binding, P. falciparum
- test settings: Kd, PfLysRS; K-CP (with lysine)

{"compound": "C[C@H]1CCC[C@H](C[C@H]2Cc3cc(O)cc(O)c3C(=O)O2)O1 [CP, cladosporin]", "target or system": "PfLysRS (Plasmodium falciparum, UniProt Q8IDJ8)", "Kd": "~2.4 nM"}

====

- target or system: HsLysRS (Homo sapiens, UniProt Q15046)
- Sequence (Q15046 70-584, one chain of several): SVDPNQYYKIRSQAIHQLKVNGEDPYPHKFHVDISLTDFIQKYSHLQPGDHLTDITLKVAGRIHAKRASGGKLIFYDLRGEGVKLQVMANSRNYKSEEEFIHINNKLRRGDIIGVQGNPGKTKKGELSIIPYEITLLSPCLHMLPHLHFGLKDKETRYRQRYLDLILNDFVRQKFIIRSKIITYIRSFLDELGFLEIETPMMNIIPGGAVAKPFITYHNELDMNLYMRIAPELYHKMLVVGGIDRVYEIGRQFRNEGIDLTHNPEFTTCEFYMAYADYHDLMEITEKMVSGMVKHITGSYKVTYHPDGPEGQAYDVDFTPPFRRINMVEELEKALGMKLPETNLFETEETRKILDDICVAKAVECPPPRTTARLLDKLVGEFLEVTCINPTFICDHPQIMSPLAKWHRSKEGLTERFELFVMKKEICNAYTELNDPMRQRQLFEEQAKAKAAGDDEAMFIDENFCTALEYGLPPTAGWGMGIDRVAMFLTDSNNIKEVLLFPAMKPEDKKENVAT
- assay overview: Thermal shift assay, HsLysRS
- Format: binding
Kd values, listed per item

{"compound": "C[C@H]1CCC[C@H](C[C@H]2Cc3cc(O)cc(O)c3C(=O)O2)O1 [CP, cladosporin]", "target or system": "HsLysRS (Homo sapiens, UniProt Q15046)", "Kd [µM]": 3.3}
{"compound": "NCCCC[C@H](N)C(=O)O [Lysine, L-lysine]", "target or system": "HsLysRS (Homo sapiens, UniProt Q15046)", "Kd [µM]": 84.9}

====

- target or system: UniProtKB Q8IDJ8
- assay overview: Thermal shift assay, PfLysRS
- Format: binding, P. falciparum
- test settings: Kd, PfLysRS; ligand alone (no lysine co-ligand); estimated from ΔTm, 25°C
pKd: −log10 of the molar value.

{"structure as smiles": "NCCCC[C@H](N)C(=O)O", "pKd": 4.47}
{"structure as smiles": "C[C@H]1CCC[C@H](C[C@H]2Cc3cc(O)cc(O)c3C(=O)O2)O1", "pKd": 5.82}

====

- target or system: PfLysRS (Plasmodium falciparum)
- assay overview: Thermal shift assay, PfLysRS
- Format: binding, P. falciparum
- test settings: Kd, PfLysRS; with lysine; estimated from ΔTm, 25°C
pKd: −log10 of the molar value.
parameter: pKd

{"structure as smiles": "C[C@H]1CCC[C@H](C[C@H]2Cc3cc(O)cc(O)c3C(=O)O2)O1", "readout value": 8.62}

====

- target or system: Pf-like human LysRS (Homo sapiens, UniProt Q15046, P300T/Q321V/T337S)
- Sequence (Q15046 70-584 P300T/Q321V/T337S): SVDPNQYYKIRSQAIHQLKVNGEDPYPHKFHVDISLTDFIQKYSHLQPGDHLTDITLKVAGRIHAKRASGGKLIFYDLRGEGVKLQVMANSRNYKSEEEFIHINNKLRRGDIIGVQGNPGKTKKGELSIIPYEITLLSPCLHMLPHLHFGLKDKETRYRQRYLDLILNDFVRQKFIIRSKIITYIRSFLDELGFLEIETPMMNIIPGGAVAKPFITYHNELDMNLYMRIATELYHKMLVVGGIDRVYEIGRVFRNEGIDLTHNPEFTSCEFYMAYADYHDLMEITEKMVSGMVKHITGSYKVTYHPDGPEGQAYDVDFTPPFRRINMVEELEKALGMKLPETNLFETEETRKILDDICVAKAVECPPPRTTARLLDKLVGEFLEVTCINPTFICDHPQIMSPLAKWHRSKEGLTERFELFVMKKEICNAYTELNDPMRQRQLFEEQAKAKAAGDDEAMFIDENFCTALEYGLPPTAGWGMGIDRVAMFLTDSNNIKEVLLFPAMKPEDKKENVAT
- Sequence (Q13155 1-36 partner limits assumed): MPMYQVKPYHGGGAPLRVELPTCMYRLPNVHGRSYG
- assay overview: Thermal shift assay, Pf-like human LysRS
- Type: binding
pKd: −log10 of the molar value.

{"structure as smiles": "C[C@H]1CCC[C@H](C[C@H]2Cc3cc(O)cc(O)c3C(=O)O2)O1", "target or system": "Pf-like human LysRS (Homo sapiens, UniProt Q15046, P300T/Q321V/T337S)", "pKd": 5.68}

====

- target or system: HsLysRS (Homo sapiens)
- assay overview: Thermal shift assay, HsLysRS
- Type: binding
- test settings: HsLysRS; with lysine; estimated from ΔTm, 25°C
pKd: −log10 of the molar value.
parameter: pKd

{"structure as smiles": "Nc1ncnc2c1ncn2[C@@H]1O[C@H](COP(=O)(O)OP(=O)(O)OP(=O)(O)O)[C@@H](O)[C@H]1O", "target or system": "HsLysRS (Homo sapiens)", "readout value": 5.55}
